Source of measurements: patent US20220024982A1

- Target of assay: T1, MT1-MMP Hemopexin domain (PEX) (UniProt P50281 319-511)
- T1 construct: domain: Hemopexin domain (PEX); Target of the fluorescence polarisation assays; also called hemopexin of MT1-MMP; MMP14
- Assay explanation: FP competition vs tracer 17-88-N006
pKd: −log10 of the molar value. Numbered stars: 1 amine (or outer) side, 2 acyl side, 3 side chain; on linkers, the order of the positions; unused ones are H or OH. Bridge positions count the residues as written; N and C are the ends. Ends that are not written are not given here. TATA = O=C(CC[*:1])N1CN(C(=O)CC[*:2])CN(C(=O)CC[*:3])C1
Metric: pKd

Enquiry: Consider the binder ACYEECRLLFPRTCA (linker 2-6-14 via TATA) [17-120-21] and give its measured pKd.
Return: < 7.08
